target: GST-tagged-Wee1 kinase (Homo sapiens, UniProt P30291); assay: Wee1 time-resolved fluorescence equilibrium binding assay (displacement of Oregon Green-labeled ATP-competitive kinase probe)
Sequence (P30291 whole entry): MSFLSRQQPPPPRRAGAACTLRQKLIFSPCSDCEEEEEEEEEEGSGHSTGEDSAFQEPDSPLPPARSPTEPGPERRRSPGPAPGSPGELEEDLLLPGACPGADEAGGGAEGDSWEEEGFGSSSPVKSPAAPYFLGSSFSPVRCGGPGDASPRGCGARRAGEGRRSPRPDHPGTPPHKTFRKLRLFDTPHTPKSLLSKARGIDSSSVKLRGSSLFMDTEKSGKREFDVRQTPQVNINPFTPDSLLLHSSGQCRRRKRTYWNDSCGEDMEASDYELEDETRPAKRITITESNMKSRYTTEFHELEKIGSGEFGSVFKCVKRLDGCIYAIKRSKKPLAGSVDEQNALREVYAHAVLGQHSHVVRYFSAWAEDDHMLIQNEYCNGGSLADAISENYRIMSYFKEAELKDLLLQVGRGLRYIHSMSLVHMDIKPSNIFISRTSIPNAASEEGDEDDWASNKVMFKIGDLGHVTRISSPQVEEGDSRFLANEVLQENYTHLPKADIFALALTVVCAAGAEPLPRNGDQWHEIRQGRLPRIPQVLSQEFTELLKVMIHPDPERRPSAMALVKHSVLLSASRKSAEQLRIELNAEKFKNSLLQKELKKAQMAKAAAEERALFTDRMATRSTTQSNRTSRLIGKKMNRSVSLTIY
pKi: −log10 of the molar value.
Given measured pKi, output yes (1) if it is greater than or equal to 8 and no (0) if not.

Exercise: Would you say CN1CCN(c2ccc(Nc3ncc4c(=O)n(-c5c(Cl)cncc5Cl)nc(-c5ccncc5)c4n3)cc2)CC1 [Example 358] shows pKi at minimum 8?
Solution: yes (1)

Exercise: # bool: pKi of COC(=O)c1cccc(-c2nn(-c3c(Cl)cccc3Cl)c(=O)c3cnc(Nc4ccc(N5CCN(C)CC5)cc4)nc23)n1 [Example 159] >= 8
Solution: yes (1)

Exercise: Reported pKi reaches at least 8 for O=c1c2cnc(Nc3ccc4c(c3)CNCC43CC3)nc2cnn1-c1c(Cl)cccc1Cl [Example 326] ?
Solution: yes (1)

Exercise: Does pKi meet or surpass 8 for Cc1nn(-c2ncccc2Cl)c(=O)c2cnc(Nc3ccc4c(c3)CC(N(C)C)C4)nc12 (stereo not drawn) [Example 367] ?
Solution: yes (1)

Exercise: Assess whether reported pKi for CC(O)Cn1nc(-c2ccccn2)c2nc(Nc3ccc(N4CCNCC4)cc3)ncc2c1=O (stereo not drawn) [Example 289] sits at 8 or higher.
Solution: no (0)

New cases:
Exercise: Check this molecule for pKi at or above 8: CN1CCN(c2ccc(Nc3ncc4c(=O)n(-c5c(Cl)cccc5Cl)nc(CF)c4n3)cc2)CC1 [Example 419]
Solution: yes (1)

Exercise: In plain terms: is recorded pKi at least 8 for COc1cc(Nc2ncc3c(=O)n(-c4ccccc4C)nc(-c4ccco4)c3n2)ccc1N1CCN(C(C)C)CC1 [Example 138] ?
Solution: yes (1)

----------
Listed here: items and their measured pKi.
molecular target: GST-tagged-Wee1 kinase (Homo sapiens); experiment: Wee1 time-resolved fluorescence equilibrium binding assay (displacement of Oregon Green-labeled ATP-competitive kinase probe)
As a rule, pKi stands for the negative log10 of the concentration, concentration in M.

Exercise: For the compound shown here, C=CCn1nc(-c2cccs2)c2nc(Nc3ccc4c(c3)CN(C)CC4)ncc2c1=O [Example 162] , give the reported pKi.
Solution: 8.40

Exercise: For the compound O=c1c2cnc(Nc3ccc4c(c3)CNCC43CC3)nc2c(-c2ccncc2)nn1-c1ccncc1Cl [Example 383] , what pKi is on record?
Solution: 8.96

Exercise: Given the compound COc1ccccc1-n1nc(C2CCCC2)c2nc(Nc3ccc(N4CCN(C)CC4)cc3)ncc2c1=O [Example 57] , what is its reported pKi?
Solution: 8.15

Exercise: Sample CNC(=O)c1ccc(-c2nn(-c3c(Cl)cccc3Cl)c(=O)c3cnc(Nc4ccc(N5CCN(C)CC5)cc4)nc23)cc1 [Example 293] — what was its pKi?
Solution: 9.60

Exercise: Need pKi, item COc1ccccc1-n1nc(-c2ccccc2)c2nc(Nc3ccc(N4CCN(C)CC4)cc3)ncc2c1=O [Example 30]
Solution: 9.00

Others:
Exercise: For Cc1nn(-c2c(Cl)cccc2Cl)c(=O)c2cnc(Nc3cccc(N4CCN(C5COC5)CC4)c3)nc12 [Example 512] , what is its reported pKi?
Solution: 8.85

Exercise: Query (compound): O=c1c2cnc(Nc3ccc4c(c3)CCNC4)nc2c(C(F)F)nn1-c1c(Cl)cccc1Cl [Example 473] ; field requested: pKi
Solution: 9.42

----------
Here, each record is paired with measured Ki data.
biological target: GST-tagged-Wee1 kinase (Homo sapiens, UniProt P30291); assay: Wee1 time-resolved fluorescence equilibrium binding assay (displacement of Oregon Green-labeled ATP-competitive kinase probe)
Kindly answer with a numeric value in nM, unit omitted.

Recorded results for 3 molecules are shown here.
Exercise: Value lookup for Ki; key = `CN1CCN(c2ccc(Nc3ncc4c(=O)n(C)nc(CCc5ccccc5)c4n3)cc2)CC1`
Solution: 680

Exercise: Item under review: `CCc1nn(-c2c(Cl)cccc2Cl)c(=O)c2cnc(Nc3ccc(N4CCN(C)CC4)cc3)nc12` . Reported Ki?
Solution: 0.33

Exercise: Which value of Ki has been reported for `C=CCn1nc(-c2ccccc2)c2nc(Nc3ccc(N4CCN(C(C)C)CC4)cc3)ncc2c1=O` in the records?
Solution: 5

Read the next record carefully.
Exercise: Need Ki of `Cn1cnc(-c2nn(-c3c(Cl)cncc3Cl)c(=O)c3cnc(Nc4ccc5c(c4)CNCC54CC4)nc23)c1` , thanks.
Solution: 3.7

----------
Known Ki of a selection of molecules
target: GST-tagged-Wee1 kinase (Homo sapiens, UniProt P30291); test: Wee1 time-resolved fluorescence equilibrium binding assay (displacement of Oregon Green-labeled ATP-competitive kinase probe)
Numbers only here, please. The scale is nM.

Exercise: So what's the measured Ki for this one? `O=c1c2cnc(Nc3ccc4c(c3)CNCC43CC3)nc2c(C2CCC2)nn1-c1c(Cl)cccc1Cl`
Solution: 0.53

New cases:
Exercise: // lookup Ki for `CN1CCN(c2ccc(Nc3ncc4c(=O)n(C)nc(C5CC(F)(F)C5)c4n3)cc2)CC1`
Solution: 1800

Exercise: Fill in the blank: the reported Ki of `CN1CCN(c2ccc(Nc3ncc4c(=O)n(-c5cccc(Cl)c5)nc(C5CCCC5)c4n3)cc2)CC1` is ____.
Solution: 63

Exercise: What measured Ki goes with `O=c1c2cnc(Nc3ccc(N4CCNCC4)cc3)nc2c(C2CC2)nn1-c1c(Cl)cccc1Cl` ?
Solution: 0.27

Exercise: State the recorded Ki for this entry: `CCc1nn(-c2c(Cl)cccc2Cl)c(=O)c2cnc(Nc3ccc4c(c3)CNCC4(C)C)nc12`
Solution: 0.95

----------
biological target: GST-tagged-Wee1 kinase (Homo sapiens, UniProt P30291); assay: Wee1 time-resolved fluorescence equilibrium binding assay (displacement of Oregon Green-labeled ATP-competitive kinase probe)
MEASURED PARAMETER: pKi
Formally, pKi is defined as -log10 of the concentration c, with c in mol/L.

Below are worked cases with known answers.
Exercise: Give its pKi value. Item: `CN1Cc2cc(Nc3ncc4c(=O)n(-c5c(Cl)cccc5Cl)nc(-c5nccn5C)c4n3)ccc2C2(CC2)C1`
Solution: 9.06

Exercise: What does the data say about its pKi? Entry: `CN1CCN(c2ccc(Nc3ncc4c(=O)n(-c5ccccc5)nc(CCc5ccccc5)c4n3)cc2)CC1`
Solution: 7.21

Continuing:
Exercise: Recorded pKi of Cc1nn(-c2c(Cl)cccc2Cl)c(=O)c2cnc(Nc3cccc(C(=O)NC4CCC(N(C)C)CC4)c3)nc12 (centres unmarked) , please.
Solution: 9.35

Exercise: What pKi value was documented for this molecule, `Cc1ccccc1-n1nc(-c2ccc(-c3ncccn3)cc2)c2nc(Nc3ccc(N4CCN(C)CC4)cc3)ncc2c1=O` ?
Solution: 9.52

Exercise: So what does the record say about pKi for `CN1Cc2cc(Nc3ncc4c(=O)n(-c5ccccc5Cl)nc(-c5cccs5)c4n3)ccc2C2(CC2)C1` ?
Solution: 8.70

Exercise: Tell me the measured pKi of `CN1CCN(c2ccc(Nc3ncc4c(=O)n(-c5ncccc5Cl)nc(-c5cn(C)cn5)c4n3)cc2)CC1` , please.
Solution: 8.16

Exercise: Bench note: what pKi did `CN1CCN(c2ccc(Nc3ncc4c(=O)n(-c5ccccc5Cl)nc(-c5ccccc5F)c4n3)cc2)CC1` show?
Solution: 9.00

Exercise: Fill in: pKi of `CN1CCN(c2ccc(Nc3ncc4c(=O)n(-c5ncccc5Cl)nc(-c5ccncc5)c4n3)cc2)CC1` is ___
Solution: 9.31

Exercise: Fill in the blank: the reported pKi of `CN1Cc2cc(Nc3ncc4c(=O)n(-c5ccccn5)nc(-c5ccccn5)c4n3)ccc2C(C)(C)C1` is ____.
Solution: 7.96

Exercise: Dear colleague, I am looking for the recorded pKi of the following molecule: `Cc1nn(-c2c(Cl)cccc2Cl)c(=O)c2cnc(Nc3cccc(C(=O)N4CCS(=O)(=O)CC4)c3)nc12`
Solution: 8.03

Exercise: Record request: pKi value, item `CN1CCN(c2ccc(Nc3ncc4c(=O)n(-c5ccccn5)nc(C5CC(F)(F)C5)c4n3)cc2)CC1`
Solution: 7.00

Exercise: What value of pKi has been recorded for this entry: `COCc1nn(-c2c(Cl)cccc2Cl)c(=O)c2cnc(Nc3ccc4c(c3)CNCC43CC3)nc12`
Solution: 9.62

Exercise: I have this molecule here, `O=c1c2cnc(Nc3ccc(N4CCN(C5CCC5)CC4)cc3)nc2c(-c2ccncc2)nn1-c1c(Cl)cccc1Cl` , and I need its recorded pKi.
Solution: 8.57

Exercise: Reported pKi for `Cc1cc(Nc2ncc3c(=O)n(-c4ncccc4Cl)nc(C)c3n2)ccc1N1CCCN(C)CC1` : what is it?
Solution: 8.74

Exercise: Requested read-out: pKi. Entry: `CN1CCN(c2ccc(Nc3ncc4c(=O)n(-c5c(Cl)cccc5Cl)nc(-c5ccncc5)c4n3)cc2)CC1`
Solution: 10.52

Exercise: Returns the measured pKi for the input molecule. Input: `Cc1cc(Nc2ncc3c(=O)n(-c4ccccc4C)nc(-c4ccccc4)c3n2)ccc1N1CCCN(C(C)C)CC1`
Solution: 9.40

Exercise: Record request: pKi value, item `CN1Cc2cc(Nc3ncc4c(=O)n(CCO)nc(-c5ccccn5)c4n3)ccc2C(C)(C)C1`
Solution: 7.30

Exercise: Can you look up the measured pKi of `CN1CCN(c2ccc(Nc3ncc4c(=O)n(-c5c(Cl)cccc5Cl)nc(-c5ccncn5)c4n3)cc2)CC1` for me?
Solution: 10.00

Exercise: Any idea what its pKi is? The molecule is `CN1CCN(c2ccc(Nc3ncc4c(=O)n(-c5c(Cl)cncc5Cl)nc(-c5ccccn5)c4n3)cc2)CC1`
Solution: 8.74

Data provenance: patent US8796289B2
